system: HCC-15; test: relative viability (nuclei count vs DMSO), 5 days (fraction); higher = more cells survive; conditions: first compound 0.01 µM
assay-readout: relative viability
Response field accepts a number only; no unit should be typed.

What value of relative viability has been recorded for this entry: NC(=O)Nc1cc(-c2cccc(F)c2)sc1C(=O)N[C@H]1CCCNC1 [AZD7762] + Cc1cc(Nc2cc(N3CCN(C)CC3)nc(Sc3ccc(NC(=O)C4CC4)cc3)n2)n[nH]1 [Tozasertib] (partner 0.1 µM)
0.448

What value of relative viability has been reported for the following molecule? NC(=O)Nc1cc(-c2cccc(F)c2)sc1C(=O)N[C@H]1CCCNC1 [AZD7762] + C[C@@H](Oc1cc(-c2cnn(C3CCNCC3)c2)cnc1N)c1c(Cl)ccc(F)c1Cl [Crizotinib] (partner 1 µM)
0.948

Any idea what relative viability was measured for NC(=O)Nc1cc(-c2cccc(F)c2)sc1C(=O)N[C@H]1CCCNC1 [AZD7762] + C[C@]1(O)C[C@@H](c2nc(-c3ccc4ccc(-c5ccccc5)nc4c3)c3c(N)nccn32)C1 [Linsitinib] (partner 1 µM) ?
0.886

Please report the recorded relative viability for NC(=O)Nc1cc(-c2cccc(F)c2)sc1C(=O)N[C@H]1CCCNC1 [AZD7762] + CC(=O)Nc1cccc(-n2c(=O)n(C3CC3)c(=O)c3c(Nc4ccc(I)cc4F)n(C)c(=O)c(C)c32)c1 [Trametinib] (partner 0.02 µM) .
0.407

Entry under review: NC(=O)Nc1cc(-c2cccc(F)c2)sc1C(=O)N[C@H]1CCCNC1 [AZD7762] + CC1(C)CCC(c2ccc(Cl)cc2)=C(CN2CCN(c3ccc(C(=O)NS(=O)(=O)c4ccc(N[C@H](CCN5CCOCC5)CSc5ccccc5)c(S(=O)(=O)C(F)(F)F)c4)cc3)CC2)C1 [Navitoclax] (partner 0.5 µM) . Reported relative viability?
0.663

Entry under review: NC(=O)Nc1cc(-c2cccc(F)c2)sc1C(=O)N[C@H]1CCCNC1 [AZD7762] + Nc1nc2[nH]cc(CCc3ccc(C(=O)N[C@@H](CCC(=O)O)C(=O)O)cc3)c2c(=O)[nH]1 [Pemetrexed] (partner 0.2 µM) . Reported relative viability?
0.213

* * *

Kindly state relative viability for each of the entries shown.
system: NCI-H522; assay: relative viability (nuclei count vs DMSO), 5 days (fraction); higher = more cells survive; details: first compound 0.01581 µM
Please state the value as a number alone, without comment.

Give recorded relative viability with NCI-H522 for the following compound: CC1(C)CCC(c2ccc(Cl)cc2)=C(CN2CCN(c3ccc(C(=O)NS(=O)(=O)c4ccc(N[C@H](CCN5CCOCC5)CSc5ccccc5)c(S(=O)(=O)C(F)(F)F)c4)cc3)CC2)C1 [Navitoclax] + CC(=O)c1c(C)c2cnc(Nc3ccc(N4CCNCC4)cn3)nc2n(C2CCCC2)c1=O [Palbociclib] (partner 0.5 µM)
1.05

Record CC1(C)CCC(c2ccc(Cl)cc2)=C(CN2CCN(c3ccc(C(=O)NS(=O)(=O)c4ccc(N[C@H](CCN5CCOCC5)CSc5ccccc5)c(S(=O)(=O)C(F)(F)F)c4)cc3)CC2)C1 [Navitoclax] + O=C(CCCCCCC(=O)Nc1ccccc1)NO [Vorinostat] (partner 1 µM) : what is its relative viability with NCI-H522?
0.934

Hi! What's the reported relative viability for CC1(C)CCC(c2ccc(Cl)cc2)=C(CN2CCN(c3ccc(C(=O)NS(=O)(=O)c4ccc(N[C@H](CCN5CCOCC5)CSc5ccccc5)c(S(=O)(=O)C(F)(F)F)c4)cc3)CC2)C1 [Navitoclax] + Cc1cc(Nc2cc(N3CCN(C)CC3)nc(Sc3ccc(NC(=O)C4CC4)cc3)n2)n[nH]1 [Tozasertib] (partner 0.1 µM) on NCI-H522?
0.535

Hello, I am looking for reported relative viability with NCI-H522 for CC1(C)CCC(c2ccc(Cl)cc2)=C(CN2CCN(c3ccc(C(=O)NS(=O)(=O)c4ccc(N[C@H](CCN5CCOCC5)CSc5ccccc5)c(S(=O)(=O)C(F)(F)F)c4)cc3)CC2)C1 [Navitoclax] + N=C(N)NC(=N)NCCc1ccccc1 [Phenformin] (partner 250 µM) . Could you help?
0.603
